// provenance: patent US9695154B2

measured_target: recombinant human SAE enzyme (Homo sapiens)
assay_text: SAE HTRF Enzyme Assay
condition_label: class symbols A-C
Experimental: The SAE enzymatic reaction totals 50 μl and contains 50 mM HEPES Hemisodium (pH 7.5), 0.05% BSA, 5 mM MgCl2, 0.5 μM ATP, 250 μM GSH, 0.01 μM Ubc9-GST, 0.125 μM Sumo-Flag and 0.11 nM recombinant human SAE enzyme. […] After incubation for 2 hours at 24° C., quantification of FRET is performed on the Pherostar™ (BMG Labtech). Percentage inhibition values at a single concentration or enzyme inhibition (IC50) values are determined from those curves. […]
The molecules listed here are annotated with their IC50.

Worked cases, answers included:
| molecule | IC50 |
| --- | --- |
| NS(=O)(=O)OC[C@H]1C[C@@H](Nc2ncncc2C(=O)c2ccn(S(=O)(=O)c3cccc(Br)c3)n2)[C@H](O)[C@@H]1O | < 10 nM |
| Cc1cc(C(=O)c2cncnc2N[C@@H]2C[C@H](COS(N)(=O)=O)[C@@H](O)C2)nn1Cc1cccc(Br)n1 | < 10 nM |
| NS(=O)(=O)OC[C@H]1C[C@@H](Nc2ncncc2C(=O)c2cc(Br)n(Cc3cccc(Br)c3)c2)[C@@H](F)[C@@H]1O | < 10 nM |
| NS(=O)(=O)OC[C@H]1C[C@@H](Nc2ncncc2C(=O)c2ccn(Cc3ccc(Cl)c(C(F)(F)F)c3)n2)[C@@H](F)[C@@H]1O | 10 to 100 nM |
| NS(=O)(=O)OC[C@H]1C[C@@H](Nc2ncncc2C(=O)c2ccn(Cc3cccc(OC(F)(F)F)c3)n2)[C@@H](F)[C@@H]1O | < 10 nM |
| NS(=O)(=O)OC[C@H]1C[C@@H](Nc2ncncc2C(=O)c2ccn(Cc3ccc(Cl)c(F)c3)n2)[C@H](O)[C@@H]1O | < 10 nM |
| NS(=O)(=O)OC[C@H]1C[C@@H](Nc2ncncc2C(=O)c2ccn(C3(c4cccc(Cl)c4)CC3)c2)C[C@@H]1O | 10 to 100 nM |
| NS(=O)(=O)OC[C@H]1C[C@@H](Nc2ncncc2C(=O)c2ccn(Cc3cc(C(F)(F)F)ccc3Cl)n2)[C@@H](F)[C@@H]1O | < 10 nM |

For the molecule shown here, NS(=O)(=O)OC[C@H]1C[C@@H](Nc2ncncc2C(=O)c2ccn(Cc3cccc(F)c3)n2)[C@H](O)[C@@H]1O , give the reported IC50.
< 10 nM

Request: NS(=O)(=O)OC[C@H]1C[C@@H](Nc2ncncc2C(=O)c2cc(CO)n(Cc3ccccc3)n2)C[C@@H]1O
< 10 nM

Request: NS(=O)(=O)OC[C@H]1C[C@@H](Nc2ncncc2C(=O)c2ccn(CC#CC3(O)CCOCC3)n2)C[C@@H]1O
100 to 1000 nM

* * *

measured_target: recombinant human SAE enzyme (Homo sapiens, UniProt Q9UBT2)
assay_text: SAE HTRF Enzyme Assay
condition_label: class symbols A-C
The following compounds are shown together with reported IC50 values.

Guide cases for IC50, answers given:
| compound | IC50 |
| --- | --- |
| NS(=O)(=O)OC[C@H]1C[C@@H](Nc2ncncc2C(=O)c2ccn(CC#CCC3CCOCC3)n2)C[C@@H]1O | 100 to 1000 nM |
| N#Cc1ccccc1Cn1ccc(C(=O)c2cncnc2N[C@@H]2C[C@H](COS(N)(=O)=O)[C@@H](O)[C@H]2O)n1 | < 10 nM |
| NS(=O)(=O)NC[C@H]1C[C@@H](Nc2ncncc2C(=O)c2ccn(Cc3cccc(Cl)c3)n2)[C@H](O)[C@@H]1O | 10 to 100 nM |

GET /values?readout=IC50&item= NS(=O)(=O)OC[C@H]1C[C@@H](Nc2ncncc2C(=O)c2ccn(Cc3ccc(F)c(F)c3)n2)C[C@@H]1O
< 10 nM

* * *

measured_target: recombinant human SAE enzyme (Homo sapiens, UniProt Q9UBT2)
assay_text: SAE HTRF Enzyme Assay
Type: biochemical
condition_label: compound concentration 0.111 μM; read-out: Percent Inhibition
property_label: inhibition at 0.111 µM (%)
Hi! Could you send only the number? It should be in %, unit omitted.

| compound | value_unit | inhibition at 0.111 µM |
| --- | --- | --- |
| CC1(C)CCC(Cn2ccc(C(=O)c3cncnc3N[C@@H]3C[C@H](COS(N)(=O)=O)[C@@H](O)C3)n2)O1 (mixture of isomers) | % | 51 |
| NS(=O)(=O)OC[C@H]1C[C@@H](Nc2ncncc2C(=O)c2ccn(Cc3cccc(Cl)c3)n2)C[C@@H]1O | % | 99 |
| NS(=O)(=O)OC[C@H]1C[C@@H](Nc2ncncc2C(=O)c2ccn(CC3CC3c3ccccc3)c2)C[C@@H]1O (mixture of isomers) | % | 93 |

Looking for the measured inhibition at 0.111 µM of Cc1cccc(Cn2ccc(C(=O)c3cncnc3N[C@@H]3C[C@H](COS(N)(=O)=O)[C@@H](O)C3)n2)n1 , can you help?
97

// same read-out, input: NS(=O)(=O)OC[C@H]1C[C@@H](Nc2ncncc2C(=O)c2ccn(Cc3ccc(Cl)c(OC(F)(F)F)c3)n2)[C@@H](F)[C@@H]1O
89

Similarly, CC#Cc1cccc(Cn2ccc(C(=O)c3cncnc3N[C@@H]3C[C@H](COS(N)(=O)=O)[C@@H](O)C3)n2)c1 ?
95

* * *

measured_target: recombinant human SAE enzyme (Homo sapiens, UniProt Q9UBT2)
Sequence (Q9UBT2 1-640): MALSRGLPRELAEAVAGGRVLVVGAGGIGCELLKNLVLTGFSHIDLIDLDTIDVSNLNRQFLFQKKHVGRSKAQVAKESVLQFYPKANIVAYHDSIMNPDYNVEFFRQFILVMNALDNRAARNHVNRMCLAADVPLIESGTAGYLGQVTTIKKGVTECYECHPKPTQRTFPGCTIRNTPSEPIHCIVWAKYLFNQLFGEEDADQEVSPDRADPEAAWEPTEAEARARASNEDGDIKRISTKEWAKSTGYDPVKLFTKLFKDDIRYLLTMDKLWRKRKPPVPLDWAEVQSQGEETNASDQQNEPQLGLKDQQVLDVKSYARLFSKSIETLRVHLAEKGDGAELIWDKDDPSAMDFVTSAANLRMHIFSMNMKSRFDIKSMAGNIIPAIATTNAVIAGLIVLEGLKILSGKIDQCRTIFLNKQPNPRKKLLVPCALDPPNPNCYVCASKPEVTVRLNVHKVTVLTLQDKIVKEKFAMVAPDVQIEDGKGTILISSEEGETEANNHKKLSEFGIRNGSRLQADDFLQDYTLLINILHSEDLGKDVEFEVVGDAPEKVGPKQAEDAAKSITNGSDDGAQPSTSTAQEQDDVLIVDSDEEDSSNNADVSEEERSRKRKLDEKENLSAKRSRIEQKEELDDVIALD
Sequence (Q9UBE0 1-346 partner): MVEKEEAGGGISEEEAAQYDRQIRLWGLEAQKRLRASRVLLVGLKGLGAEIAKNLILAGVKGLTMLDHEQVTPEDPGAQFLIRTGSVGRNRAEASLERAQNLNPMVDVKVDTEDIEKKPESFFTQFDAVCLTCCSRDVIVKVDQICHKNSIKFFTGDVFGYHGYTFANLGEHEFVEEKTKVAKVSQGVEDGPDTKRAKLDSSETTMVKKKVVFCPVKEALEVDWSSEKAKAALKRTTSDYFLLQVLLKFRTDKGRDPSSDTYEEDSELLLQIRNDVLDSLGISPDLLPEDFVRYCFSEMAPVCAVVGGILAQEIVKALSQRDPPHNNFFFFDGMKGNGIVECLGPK
assay_text: SAE HTRF Enzyme Assay
condition_label: class symbols A-C
pIC50: −log10 of the molar value.
property_label: pIC50

| molecule | measured_target | value_measured |
| --- | --- | --- |
| NS(=O)(=O)OC[C@H]1C[C@@H](Nc2ncncc2C(=O)c2ccn(Cc3cc(Br)ccc3F)n2)C[C@@H]1O [Compound I-346] | recombinant human SAE enzyme (Homo sapiens, UniProt Q9UBT2) | > 8.00 |
| Cc1cc(Cn2ccc(C(=O)c3cncnc3N[C@@H]3C[C@H](COS(N)(=O)=O)[C@@H](O)[C@H]3O)n2)no1 [Compound I-169] | recombinant human SAE enzyme (Homo sapiens, UniProt Q9UBT2) | > 8.00 |
| COC(C)(C)C#CCn1ccc(C(=O)c2cncnc2N[C@@H]2C[C@H](COS(N)(=O)=O)[C@@H](O)[C@@H]2F)c1 [Compound I-75] | recombinant human SAE enzyme (Homo sapiens, UniProt Q9UBT2) | 7.00 to 8.00 |
| NS(=O)(=O)OC[C@H]1C[C@@H](Nc2ncncc2C(=O)c2ccn(Cc3cccc(Cl)c3)n2)[C@H](O)[C@@H]1O [Compound I-40] | recombinant human SAE enzyme (Homo sapiens, UniProt Q9UBT2) | > 8.00 |
| N[C@@H]1[C@H](O)[C@@H](COS(N)(=O)=O)C[C@H]1Nc1ncncc1C(=O)c1ccn(Cc2cccc(Br)c2)n1 [Compound I-370] | recombinant human SAE enzyme (Homo sapiens, UniProt Q9UBT2) | 7.00 to 8.00 |

Hello, I am looking for reported pIC50 with recombinant human SAE enzyme (Homo sapiens, UniProt Q9UBT2) for NS(=O)(=O)OC[C@H]1C[C@@H](Nc2ncncc2C(=O)c2ccn(Cc3cccc(Br)n3)n2)C[C@@H]1O [Compound I-352] . Could you help?
> 8.00

Now consider NS(=O)(=O)OC[C@H]1C[C@@H](Nc2ncncc2C(=O)c2ccn(Cc3cccc(Br)c3)c2)[C@@H](F)[C@@H]1O [Compound I-312] and answer again.
> 8.00

Do the same for Cc1cc(C(=O)c2cncnc2N[C@@H]2C[C@H](COS(N)(=O)=O)[C@@H](O)C2)nn1C(C)c1cccc(Cl)c1 (single isomer, unassigned) [Compound I-172] please
7.00 to 8.00

C/C=C/Cn1ccc(C(=O)c2cncnc2N[C@@H]2C[C@H](COS(N)(=O)=O)[C@@H](O)C2)n1 [Compound I-107] , same question.
7.00 to 8.00

Repeat with NS(=O)(=O)OC[C@H]1C[C@@H](Nc2ccncc2C(=O)c2ccn(Cc3cccc(OC(F)(F)F)c3)c2)[C@@H](F)[C@@H]1O [Compound I-132]
7.00 to 8.00

// same read-out, input: NS(=O)(=O)OC[C@H]1C[C@@H](Nc2ncncc2C(=O)c2ccn(Cc3cccc(OC(F)(F)F)c3)c2)C[C@@H]1O [Compound I-271]
> 8.00

Would you mind doing NS(=O)(=O)OC[C@H]1C[C@@H](Nc2ncncc2C(=O)c2ccn(Cc3cccc(Cl)c3)c2)[C@@H](F)[C@@H]1O [Compound I-147] as well?
> 8.00

Now consider COc1ncccc1Cn1ccc(C(=O)c2cncnc2N[C@@H]2C[C@H](COS(N)(=O)=O)[C@@H](O)C2)n1 [Compound I-63] .
7.00 to 8.00

Okay, and CC(C)(O)c1cc(C(=O)c2cncnc2N[C@@H]2C[C@H](COS(N)(=O)=O)[C@@H](O)C2)nn1Cc1cccc(Br)c1 [Compound I-367] ?
> 8.00

Thanks! And NS(=O)(=O)OC[C@H]1C[C@@H](Nc2ncncc2C(=O)c2ccn(CC3CCOC3)n2)C[C@@H]1O (mixture of isomers) [Compound I-332] ?
6.00 to 7.00

Further, for NS(=O)(=O)OC[C@H]1C[C@@H](Nc2ncncc2C(=O)c2ccn(Cc3cccc(Br)c3)n2)[C@H](O)[C@@H]1O [Compound I-240] ?
> 8.00

Subsequent entry: C#CCn1ccc(C(=O)c2cncnc2N[C@@H]2C[C@H](COS(N)(=O)=O)[C@@H](O)C2)c1 [Compound I-330]
7.00 to 8.00
